Assay: chemical genetic growth profiling, strain panel (AID 1159580);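 also: tested at 20 µM; growth read once vehicle control cultures reached saturation at 30 °C; 1 = growth at the plate median or of vehicle wells; lower values mean less growth of the strain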
Details: S. cerevisiae deletion strains, growth OD, locus YMR078C, strain ctf18, active compounds read low
Out of some 5,500 compounds screened, about 2,000 (36%) were called active. Another 18% or so got no clear call; they are omitted. The list shows a part of the results.
Measured normalized growth, listed per entry for reference.
Give your answer as a number; write no unit.

Here are 6 compounds together with their reported answers.
1. O=c1[nH]c(=O)n(C2C[C@H](O)[C@@H](CO)O2)cc1C(F)(F)F (some centres undefined) = 0.972
2. CC(C)=CC1C(C(=O)OCc2cccc(Oc3ccccc3)c2)C1(C)C (centres undefined) = 0.972
3. Cc1ccc(C(=O)c2ccc(CC(=O)O)n2C)cc1 = 0.97
4. COc1ccc(CCC(=O)c2c(O)cc(O[C@@H]3O[C@H](CO)C(O)[C@H](O)C3O[C@@H]3O[C@@H](C)[C@H](O)[C@@H](O)[C@H]3O)cc2O)cc1O (some centres undefined) = 0.989
5. CC(=O)O[C@H]1C[C@@H](OC(C)=O)C(C)(C)C2C[C@@H](OC(C)=O)[C@]3(C)C(CC[C@@]4(C)[C@H](c5ccoc5)OC(=O)[C@H]5O[C@]543)[C@]21C (some centres undefined) = 0.989
6. NC(=O)NC1NC(=O)NC1=O (centres undefined) = 0.976

Challenge: Assign normalized growth to the following record: O=C(O)COc1ccc(Cl)cc1Cl
Response given: 1.02

Challenge: Fill in reported normalized growth for this entry: O=C(O)C(O)C(O)C(O)C(O)C(=O)O (centres undefined)
Response given: 0.983

Challenge: For the compound Clc1ccc(CSC(Cn2ccnc2)c2ccc(Cl)cc2Cl)cc1 (centres undefined) , report normalized growth.
Response given: 0.0695

Challenge: Return normalized growth for the following compound: COC1C=CC23c4cc5c(cc4CN(CC2O)[C@@H]3C1)OCO5 (some centres undefined)
Response given: 1.01

Challenge: Specify normalized growth for CN1CCC[C@@H]1CCO[C@](C)(c1ccccc1)c1ccc(Cl)cc1 and stop.
Response given: 0.993

Challenge: State, in one line, measured normalized growth of C=NC(C(=O)NC1C(=O)N2C1SC(C)(C)C2C(=O)O)c1ccccc1 (centres undefined)
Response given: 1.01

Challenge: Note normalized growth for the compound shown: COC[C@]12CN(C=O)C3[C@@H]4[C@H](OC)C1[C@]3(C1CC3(O)C(OC)C(O)C4(OC(C)=O)C1C3OC(=O)c1ccccc1)[C@@H](OC)C[C@H]2O (some centres undefined)
Response given: 1.01

Challenge: Tell me normalized growth reported for NC1(C(=O)O)CCC1
Response given: 0.988

* * *

Test: chemical genetic growth profiling, strain panel (AID 1159580)
Details: S. cerevisiae deletion strains, growth OD, locus YGL086W, strain mad1, active compounds read low
Out of some 5,500 compounds screened, about 2,000 (36%) were called active. Roughly 18% stayed inconclusive and do not appear here. This is one part of the list.
MEASUREMENT NAME: normalized growth
Give the value as a plain number.

1) CC(=O)Oc1ccc2c(c1)CCC1C2CC[C@]2(C)C(=O)CCC12 (stereo partly drawn) = 1
2) C[C@]12C=CC(=O)C=C1CCC1C2[C@@H](O)C[C@@]2(C)C1CC[C@]2(O)C(=O)CO (stereo partly drawn) = 1

Challenge: Query normalized growth for C=NC(C(=O)NC1C(=O)N2C1SC(C)(C)C2C(=O)O)c1ccccc1 (stereo not drawn)
Response given: 1.02

Challenge: Quick one: give measured normalized growth for COc1cc2c(cc1OC)C1(O)C(=O)c3ccc(O)c(C(=O)O)c3OC1CO2 (stereo not drawn)
Response given: 1.02

* * *

Assay: chemical genetic growth profiling, strain panel (AID 1159580)
Details: S. cerevisiae deletion strains, growth OD, locus YNL298W, strain CLA4
The whole screen tested about 5,500 compounds, of which about 2,000 (36%) were called active. Roughly 18% stayed inconclusive and do not appear here. Rule as the data show it: active = normalized growth mostly below about 0.91 (no sharp cut-off); inconclusive = no clear call, values can overlap the other calls; inactive = mostly above about 0.92. This is one part of the list.
In this exercise, the only acceptable responses are active, inactive

Answered cases to consult:
1) Clc1ccc(COC(Cn2ccnc2)c2ccc(Cl)cc2Cl)cc1 (stereo unspecified) = active
2) CC(=O)OCC(=O)[C@@]1(O)CCC2C3CCC4=CC(=O)C=CC4(C)C3[C@@H](O)C[C@@]21C (stereo partly specified) = inactive
3) COc1c(C)c2c(c(O)c1C/C=C(\C)CCC(=O)O)C(=O)OC2 = active
4) Fc1ccc([C@@H]2CCNC[C@H]2COc2ccc3c(c2)OCO3)cc1 = inactive
5) Cc1cccc(C)c1NC(=O)C1CCCCN1C (stereo unspecified) = inactive

Lab note: next compound to report on.
Challenge: // outcome(item) with item = CC(=O)O[C@@H]1CC2C(C)(C)[C@@H](O)CC[C@]2(C)C2CC[C@@]3(C)[C@H](c4ccoc4)OC(=O)[C@H]4O[C@]43[C@@]21C (stereo partly specified)
Response given: inactive

* * *

normalized growth: recorded values
Assay: chemical genetic growth profiling, strain panel (AID 1159580);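 also: tested at 20 µM; growth read once vehicle control cultures reached saturation at 30 °C; 1 = growth at the plate median or of vehicle wells; lower values mean less growth of the strain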
Details: S. cerevisiae deletion strains, growth OD, locus YDL035C, strain GPR1, active compounds read low
Out of some 5,500 compounds screened, about 2,000 (36%) were called active. Not shown: some 18% with an inconclusive outcome. Some of the results follow.
Could you keep your reply to the number by itself?

1) Clc1ccc(CSC(Cn2ccnc2)c2ccc(Cl)cc2Cl)cc1 (stereo not drawn) = 0.0497

Challenge: Identify normalized growth associated with the compound NC(=O)NC1NC(=O)NC1=O (stereo not drawn)
Response given: 1.01

Challenge: State its normalized growth for this compound: NCCCC(=O)O
Response given: 1.01

Challenge: Fill in reported normalized growth for this entry: CCCCCCCCCCCCCC(=O)OC1C(C)C2(O)C(C=C(CO)CC3(O)C(=O)C(C)=CC32)C2C(C)(C)C12OC(C)=O (stereo not drawn)
Response given: 1.06

Challenge: Input COP(=S)(OC)Oc1ccc([N+](=O)[O-])cc1 , output reported normalized growth.
Response given: 0.988

Challenge: Find the measured normalized growth of CN(C)CCC(c1ccccc1)c1ccccn1 (stereo not drawn) and report it.
Response given: 1.01

Challenge: Tell me its normalized growth given O=C(O)CCC1NCC2CC1CN1CCCCC21 (stereo not drawn) as the entry.
Response given: 1.02

Challenge: Tell me measured normalized growth for Clc1ccc(COC(Cn2ccnc2)c2ccc(Cl)cc2Cl)c(Cl)c1 (stereo not drawn) please.
Response given: 0.0505

Challenge: Recall and state the measured normalized growth for COc1c(C)c2c(c(O)c1C/C=C(\C)CCC(=O)O)C(=O)OC2 .
Response given: 0.789

Challenge: Read off the recorded normalized growth for NCCCCCC(=O)O
Response given: 0.963

Challenge: Answer with the recorded normalized growth of NCCCCC(=O)O only.
Response given: 1.02

Challenge: Respond only with normalized growth recorded for CC(=O)O[C@]1(C)CC[C@@]23CC1C(C)(C)[C@@H]2CC[C@H]3C
Response given: 0.964

Challenge: Complete the entry with normalized growth for O=C(O)CCCCCCCC(=O)O
Response given: 0.994

* * *

Each item that follows carries a reported normalized growth.
Test: chemical genetic growth profiling, strain panel (AID 1159580);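 also: tested at 20 µM; growth read once vehicle control cultures reached saturation at 30 °C; 1 = growth at the plate median or of vehicle wells; lower values mean less growth of the strain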
Conditions: S. cerevisiae deletion strains, growth OD, locus YOR083W, strain WHI5, active compounds read low
Hit rate of the full screen: of about 5,500 compounds, about 2,000 (36%) were called active. About 18% were inconclusive and are not listed. Some of the results follow.
A bare number is all that is needed in reply.

Here are 5 compounds together with their reported answers.
1. O=c1oc2ccccc2cc1O = 0.986
2. CCCn1c(=O)c2[nH]c(C3CCCC3)nc2n(CCC)c1=O = 1.01
3. CCCCCCCCCCCCCC(=O)OC1C(C)C2(O)C(C=C(CO)CC3(O)C(=O)C(C)=CC32)C2C(C)(C)C12OC(C)=O (stereo unspecified) = 1.01
4. O=C(O)CCC1NCC2CC1CN1CCCCC21 (stereo unspecified) = 0.965
5. O=C1CCCN1CC#CCN1CCCC1 = 1.02

# ---- query compound ----
Challenge: Using known records, supply normalized growth for Clc1ccc(C(Cn2ccnc2)OCc2ccsc2Cl)c(Cl)c1 (stereo unspecified)
Response given: 0.0618

* * *

Assay: chemical genetic growth profiling, strain panel (AID 1159580);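 also: tested at 20 µM; growth read once vehicle control cultures reached saturation at 30 °C; 1 = growth at the plate median or of vehicle wells; lower values mean less growth of the strain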
Settings: S. cerevisiae deletion strains, growth OD, locus YGR052W, strain FMP48, active compounds read low
About 2,000 (36%) of roughly 5,500 compounds were called active. Roughly 18% stayed inconclusive and do not appear here. The list shows a part of the results.
MEASUREMENT NAME: normalized growth
I'd appreciate a reply containing only the number, no unit.

# annotated cases, reported normalized growth shown
1) Nc1ccccc1C(=O)Nc1cc(C(F)(F)F)cc(C(F)(F)F)c1 = 0.921
2) O=S(=O)(NCc1ccc(C(F)(F)F)cc1)c1cc(Br)c(Br)s1 = 0.729
3) O=S(=O)(Nc1cc(Cl)c(Cl)cc1Cl)c1cc(C(F)(F)F)cc(C(F)(F)F)c1 = 0.913

Challenge: State its normalized growth for this compound: O=S(=O)(NCc1cc(Cl)cc(Cl)c1)c1cc(C(F)(F)F)cc(C(F)(F)F)c1
Response given: 0.878

Challenge: Report normalized growth, nothing else, for this compound: O=S(=O)(NCc1ccc(C(F)(F)F)cc1)c1cccc(C(F)(F)F)c1
Response given: 0.97

Challenge: State its normalized growth for this compound: Nc1ccc(Oc2ccc(Cl)cc2C2CCCCC2)nc1
Response given: 0.796
